Entries and their measured inhibition follow.
- assayed_target: Mannose-6-phosphate isomerase (Homo sapiens)
- assay_comment: inhibitors of human PMI, primary screen, biochemical, fluorescence intensity, coupled assay (AID 1209);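 further: plate controls were DMSO vehicle for no effect and wells lacking substrate for full effect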
- condition_parameters: purified PMI enzyme, at 20 µM, active compounds read high
The campaign covered roughly 190,000 compounds. About 810 (0.43%) were called active. This is one part of a sample in which actives are shown more often than they occur.
Just the number please, in %, no unit attached.

These recorded examples may help you get a feel for the data.
compound	unit_of_measure	inhibition
CCO[C@H]1OC(C(=O)N2CCN(Cc3ccc4c(c3)OCO4)CC2)=C[C@@H](c2ccccc2)[C@@H]1CCCO	%	7.5
Oc1cccc(/C=N/NC(=S)NCCN2CCOCC2)c1O	%	66.9
CCOC(=O)c1cnc(SCC(=O)NCc2cccs2)nc1N	%	-5.5
CCCCCc1nc2sc3c(c2c(=O)n1N)CCC3	%	-5.8
Cc1cccc(Nc2c([N+](=O)[O-])c(=O)n(C)c3ccccc23)c1	%	2.7
C=CCOC(=O)C1=C[C@H](c2ccc(Br)cc2)[C@@H](CCCO)[C@H](OCC)O1	%	17.5
NC(=S)N/N=C/c1ccccc1	%	11.4
Cn1cnnc1SCc1nc(N)nc(Nc2ccccc2)n1	%	0.3
COC(=O)c1cc(OC)nc2c1c(=O)n(C)c(=O)n2C	%	-3.1
CNc1nc2[nH]c(=O)c3c(c2s1)OC(N)=C(C#N)C3c1ccccc1 (centres undefined)	%	43.5

Name the recorded inhibition for Nc1ccc2c(c1)OC1(CCCCC1)O2 .
55.6

Fill blank: measured inhibition of the compound O=C(O)c1ccccc1Cc1nc2cc(Cl)ccc2c(=O)[nH]1 is ____.
-7.4

Fill in the blank: the reported inhibition of Oc1ccc(/C=N/NC(=S)NCCN2CCOCC2)c(O)c1 is ____.
-8.8

Request the reported inhibition associated with COCCCNC(=S)N/N=C/c1ccc(N(C)C)cc1
1

Need inhibition, item COC(=O)c1nn(-c2ccccc2)c(=O)cc1Oc1ccc(Cl)cc1
-15.5
